// provenance: patent US20190290729A1

# Tested on: human rhabdosarcoma cells
# ASSAY_DETAILS: p53 quantification, same procedure, rhabdosarcoma cells
# Assay type: cell-based
# Design: unit not given here
# SETUP_CONDITIONS: Table 9, in association with SiRNA Integrin alpha 3+RGDSPC+SiRNA Integrin beta 1+SiRNA Syndecan 1 (SEQ ID NO: 31, 32, 164 to 187)
EXPERIMENTAL_READOUT: P53

INSERT INTO assay_data (chain_sequence, meas_value) VALUES
  ('CAAPASSSVPARLSPISILYIDAANNVVYKQYEDMVVEASG (Non-cyclic GFR-binding peptide) [SEQ ID NO: 181]', 45),
  ('CPARLSPISLLYIDAANNVVYKQYEDM (Non-cyclic GFR-binding peptide) [SEQ ID NO: 184]', 39),
  ('CGIPEPSSVPEKTSSLSLLFFDENKNVVLKVYPNM (Non-cyclic GFR-binding peptide) [SEQ ID NO: 180]', 29),
  ('CASAAPSSVPQALEPLPIVYYVGRTPKVEQLSNMIVRSSK (Non-cyclic GFR-binding peptide) [SEQ ID NO: 175]', 45),
  ('CKIPKASSVPTELEPLPIVYYVGRKPKVEQLSNMIVRS (Non-cyclic GFR-binding peptide) [SEQ ID NO: 174]', 40),
  ('GTPGPAPTQLSPISVLYKDDSSNVILKYHY (Non-cyclic GFR-binding peptide) [SEQ ID NO: 31]', 34),
  ('WWFWGKASSVPTELSPISTLYKDENEKVVLKYHYDMVVEGSGSR (Non-cyclic GFR-binding peptide) [SEQ ID NO: 170]', 44);
